Hey, just so you know, these numbers are from patent US20130102595A1.

tested on: PANC-1; assay: Cell proliferation assay (CellTiter-Glo); type: cell-based; conditions: Homo sapiens, Pancreas, 72 hours, 0.5% fetal bovine serum, read-out: antiproliferative activity IC50, PANC-1
pIC50: −log10 of the molar value.
endpoint_label: pIC50

Quick one: pIC50 of CC(=O)Nc1ccc(-c2nc(N3CCOCC3)c3sc(CN(C)c4ncc(C(=O)NO)cn4)cc3n2)cn1 ?
7.00 to 8.00

State the recorded pIC50 for this entry: Cc1nc2ccc(-c3nc(N4CCOCC4)c4sc(CN(C)c5ncc(C(=O)NO)cn5)cc4n3)cc2[nH]1
6.00 to 7.00

Returns the measured pIC50 for the input compound. Input: CNc1ccc(-c2nc(N3CCOCC3)c3sc(CN(C)c4ncc(C(=O)NO)cn4)cc3n2)cn1
7.00 to 8.00

Query: pIC50; subject: CN(Cc1cc2nc(-c3cccc(CO)c3)nc(N3CCOCC3)c2s1)c1ncc(C(=O)NO)cn1
7.00 to 8.00

Suppose we examine the compound Cc1ncc(-c2nc(N3CCOCC3)c3sc(CN(C)c4ncc(C(=O)NO)cn4)cc3n2)cn1 ; what pIC50 value has been reported?
6.00 to 7.00
